- test-summary: NCI Yeast Anticancer Drug Screen. Data for the mlh1 rad18 strain (AID 175)
- details: S. cerevisiae mlh1 rad18 strain growth inhibition; at 50.0 µM; hits give high values
The panel holds about 79,000 compounds, 15% with a hit somewhere; the sample as a whole holds those more often.
quantity-kind: growth inhibition (%)
State just the number; it will be interpreted in %.

So, "CCCCCN(CCCCC)CCCNc1ccc(C)c2sc3ccccc3c(=O)c12" ? Its growth inhibition was 97.5

So, "Cc1ccc(SC2=C(N(C)C)C(=O)c3ccccc3C2=O)cc1" ? Its growth inhibition was 89.7

So, "Clc1ccc2ccc3cccnc3c2n1" ? Its growth inhibition was -25.1

So, CC(C)(C)C(=O)CC(Cc1nccc2ccccc12)c1ccco1 (stereo unspecified) ? Its growth inhibition was 98.9

So, "Oc1ccccc1C(=NNc1ccccc1)c1ccccc1O" ? Its growth inhibition was 90.9

So, "O=C(/C=N/O)c1c(-c2ccccc2)[nH]c(-c2ccccc2)c1-c1ccccc1" ? Its growth inhibition was 96

So, "CCSc1c2ccccc2nc2c(OC)ccc(OC)c12" ? Its growth inhibition was 90.3

So, Cc1ccc2c(c1)NC(=O)C(N=[N+]=[N-])(c1ccccc1)C2=O (stereo unspecified) ? Its growth inhibition was 70.4

So, "COC(=O)n1c(C[P+](c2ccccc2)(c2ccccc2)c2ccccc2)cc2ccccc21" ? Its growth inhibition was 99

So, "COc1ccc(/C(Cl)=C(\C=O)c2ccc(Cl)c(Cl)c2)cc1" ? Its growth inhibition was 98.2

So, CCN(CC)c1ccc(NC(CC(O)c2ccccc2)c2ccccc2)cc1 (stereo unspecified) ? Its growth inhibition was 24.5

====

- test-summary: NCI Yeast Anticancer Drug Screen. Data for the rad50 strain (AID 155);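 further: 0% = growth of vehicle-only cultures of the same strain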
- details: S. cerevisiae rad50 strain growth inhibition; at 5.0 µM (retest, dose inferred, filed as 0.5); hits give high values
About 79,000 compounds went through this panel and 15% of them were active in at least one assay; those are over-represented in the sample as a whole.
Consider the following molecules; for each one, report its growth inhibition.
State just the number; it will be interpreted in %.

So, "COc1cc(C)cc2c(-c3c(O)cc(O)c4c3C[C@H](C)N[C@H]4C)cc(-c3cc(-c4c(O)cc(O)c5c4C[C@H](C)N[C@H]5C)c4cc(C)cc(OC)c4c3O)c(O)c12" ? Its growth inhibition was -6

So, OC1CC2OC2C1O (configuration not stated) ? Its growth inhibition was -2

So, CCC(CO)Nc1nc2cc(Br)ccc2c2ccc(Br)cc12 (configuration not stated) ? Its growth inhibition was 36

So, "CCCCCCCCCCNC(=O)C[n+]1cccc(C(=O)NCc2ccccc2)c1" ? Its growth inhibition was 8

So, "O=C1CNC(=O)c2cc(Cl)ccc2N1" ? Its growth inhibition was 46

So, "Cc1ccc(-c2c(C#N)c(-c3ccc(Cl)cc3)c(C#N)c(=O)n2NS(=O)(=O)c2ccccc2)cc1" ? Its growth inhibition was 38

So, "c1ccc(CC[n+]2csc3ccccc32)cc1" ? Its growth inhibition was -2

So, "S=C(Nc1ccccn1)c1ccccn1" ? Its growth inhibition was -3

So, COc1cc(C2C(Cl)C(=O)N2NC(=O)c2ccccc2O)cc(OC)c1OC (configuration not stated) ? Its growth inhibition was -8

So, C/C(=N\NC(=S)N1CC(C)OC(C)C1)c1ncccn1 (configuration not stated) ? Its growth inhibition was 53

So, "O=C1C(c2c[nH]c3ccccc23)=Nc2ccc(Br)cc21" ? Its growth inhibition was 19

So, "NC(=S)C(=S)N=Cc1c(N)[nH]n(-c2ccccc2)c1=O" ? Its growth inhibition was -13

So, "O=C(CC(O)(C(F)(F)Cl)C(F)(F)Cl)CC(O)(C(F)(F)Cl)C(F)(F)Cl" ? Its growth inhibition was 94

So, CC1SC2(C(=O)Nc3ccc(Br)cc32)N(c2ccc(Cl)cc2)C1=O (configuration not stated) ? Its growth inhibition was 13

So, "O=NN(CCCl)C(=O)Nc1cc(=O)[nH]c(SCc2ccccc2)n1" ? Its growth inhibition was -23

So, "O=C(CCC1OCCO1)Nc1cc(NCc2ccccc2)ccc1OCc1ccccc1" ? Its growth inhibition was 1

So, "CC(=O)N(/C=C\c1sc2ccccc2[n+]1C)c1ccccc1" ? Its growth inhibition was 38

So, "CCCCN(c1ccccc1)c1ncnc2c1ncn2C" ? Its growth inhibition was 1

So, "CNC(=O)c1cc(NC(=O)c2ccc(C(=O)Nc3cc(C(=O)NC)cc(C4=NCCN4)c3)cc2)cc(C2=NCCN2)c1" ? Its growth inhibition was 3

So, "CC1=C(C(=O)Nc2ccc(Cl)c(Cl)c2)C(c2ccco2)C(C(=O)Nc2ccc(Cl)c(Cl)c2)=C(C)N1" ? Its growth inhibition was 41

So, "CCOC(=O)Cc1nc2ccccc2s1" ? Its growth inhibition was 3

So, "CCCCC(CC)(COC(C)=O)COC(C)=O" ? Its growth inhibition was -3

====

- test-summary: NCI Yeast Anticancer Drug Screen. Data for the bub3 strain (AID 167)
- details: S. cerevisiae bub3 mutant strain, at 50.0 µM
About 79,000 compounds went through this panel and 15% of them were active in at least one assay; those are over-represented in the sample as a whole. The source made the active and inactive calls. No stated cut-off is given here; in the data, active means growth inhibition above about 70%; inactive means the rest.
// classify into active, inactive

Request: Could you check what this test reported for "N#CC1(C#N)C(C#N)(C#N)C12CCCCCC2" ?
Result: active

Request: Could you check what this test reported for "Nc1cccc2c1[nH]c(=O)c1ccccc12" ?
Result: active

Request: Could you check what this test reported for "O=[N+]([O-])c1ccccc1N=Nc1c(O)[nH]c2ccc(S(=O)(=O)O)cc12" ?
Result: active

Request: Could you check what this test reported for "S=c1ncc2c([nH]1)C1c3ccccc3C2c2ccccc21" ?
Result: active

Request: Could you check what this test reported for "Cn1sc2ccccc2c1=S" ?
Result: active

Request: Could you check what this test reported for "CN(C)c1nc(=NCc2ccco2)ss1" ?
Result: inactive

Request: Could you check what this test reported for "CCOC(=O)C(=Cc1cccnc1C)C(=O)OCC" ?
Result: active

Request: Could you check what this test reported for "Cc1ccc(-c2c(C#N)c(-c3ccc(Cl)cc3)c(C#N)c(=O)n2NS(=O)(=O)c2ccccc2)cc1" ?
Result: active

Request: Could you check what this test reported for "CCCCCSc1nc2ncnc(N)c2[nH]1" ?
Result: inactive

Request: Could you check what this test reported for CC12CCC(=O)C=C1CCC1C2CCC2(C)C(C(=O)Cn3cnc4c(=S)nc[nH]c43)CCC12 (stereo not drawn) ?
Result: inactive

Request: Could you check what this test reported for CN(C)/N=C\C1CC=CCC1 (stereo not drawn) ?
Result: inactive

Request: Could you check what this test reported for "Cc1cc(CN(Cc2ccccc2)Cc2nc3ccccc3[nH]2)c(O)c(CN(Cc2nc3ccccc3[nH]2)Cc2nc3ccccc3[nH]2)c1" ?
Result: inactive

Request: Could you check what this test reported for "NCCNC[Si](c1ccccc1)(c1ccccc1)c1ccccc1" ?
Result: inactive

Request: Could you check what this test reported for "O=C1C(=Cc2ccccc2O)N=C(c2ccccc2)N1n1c(-c2ccccc2)nc2ccccc2c1=O" ?
Result: active

Request: Could you check what this test reported for "CCCCCCCCCCCCS" ?
Result: inactive

Request: Could you check what this test reported for "NCCc1ccc2oc3cc(=O)c4ccccc4c-3nc2c1" ?
Result: inactive

Request: Could you check what this test reported for CCN(CC)CCOc1ccc(C(O)(Cc2ccc(Cl)cc2)c2ccccc2)cc1 (stereo not drawn) ?
Result: active

Request: Could you check what this test reported for "Nc1nnc(-c2cc(=O)c3cc(Cl)ccc3o2)s1" ?
Result: inactive

Request: Could you check what this test reported for "CCCCN(CCCC)CCCCCCNc1cc(OC)cc2cccnc12" ?
Result: active

Request: Could you check what this test reported for Cc1cc(Br)cc(C)c1NC(=O)C(=O)C(C(=O)c1ccc2ccccc2c1)C1OC(=O)c2ccccc21 (stereo not drawn) ?
Result: inactive

Request: Could you check what this test reported for "O=C1c2ccccc2-c2nc3ncccc3cc21" ?
Result: active

Request: Could you check what this test reported for COc1nc2c(ccn2C2OC(COC(C)=O)C(OC(C)=O)C(OC(C)=O)C2OC(C)=O)c(=O)n1C (stereo not drawn) ?
Result: inactive

Request: Could you check what this test reported for "N#Cc1c(Cl)cc(Cl)n2c1nc1ccccc12" ?
Result: active

====

- test-summary: NCI Yeast Anticancer Drug Screen. Data for the cln2 rad14 strain (AID 165);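 further: 0% = growth equal to vehicle treated cultures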
- details: S. cerevisiae cln2 rad14 strain, at 50.0 µM, hits give high values
Compounds without any hit were thinned out: in the full panel of roughly 79,000, 15% have a hit.
Consider the following compounds; for each one, report its growth inhibition.
State just the number; it will be interpreted in %.

So, C=CCOC(=O)CC(OC(C)=O)C(CC)CC(C)C (configuration not stated) ? Its growth inhibition was 80.7

So, "O=[N+]([O-])c1cccc(Cl)c1C(Nc1nncs1)Nc1nncs1" ? Its growth inhibition was 26.6

So, "O/N=C(/Cc1nc2cc(Cl)c(Cl)cc2nc1C/C(=N/O)c1ccncc1)c1ccncc1" ? Its growth inhibition was 84.5

So, "CCCCCCCCCCCCCCCCCC1=NCCN1" ? Its growth inhibition was 98

So, "CC(C)OC(=O)c1ccc(CCC2=CC(=O)C=CC2=O)cc1" ? Its growth inhibition was 61.7

So, CCCCCCCCCc1ccc(OCC(O)CO)cc1 (configuration not stated) ? Its growth inhibition was 99.5

So, "COc1cc2c[n+](C)c3c4cc(OC)c(OCc5ccccc5)cc4c(OCc4ccccc4)cc3c2cc1OC" ? Its growth inhibition was 96.6

So, "CCCCCCCCCCNC(=O)C[n+]1cccc(C(=O)NCc2ccccc2)c1" ? Its growth inhibition was 98.8

So, "N=c1n(CC(=O)NC23CC4CC(CC(C4)C2)C3)c2ccccc2n1CC(=O)NC12CC3CC(CC(C3)C1)C2" ? Its growth inhibition was 44

So, "CN(c1ccc(C(N)=O)cc1)c1c(O)c2ccccc2[nH]c1=O" ? Its growth inhibition was 24.9

So, "CCn1c2ccc(N)cc2c2c(N)c(-n3cccc3)ccc21" ? Its growth inhibition was 61.9

So, "Cc1cc(NC(=S)SCc2ccc3c(c2)OCO3)ccc1Cl" ? Its growth inhibition was 89.7

So, "O=C1c2ccccc2C(=O)c2sc(Nc3ccc(Cl)c(Cl)c3)nc21" ? Its growth inhibition was 88

So, "COc1cc2c(cc1O)-c1c(cnn1-c1ccc([N+](=O)[O-])cc1)CCC2" ? Its growth inhibition was 73

So, COc1cccc2c1C(=O)c1c(O)c3c(c(O)c1C2=O)CC(O)(C(C)=O)CC3OC1CC(NCC2(O)OCC(O)C(O)C2O)C(O)C(C)O1 (configuration not stated) ? Its growth inhibition was 73.3

So, "COc1cc(C(Sc2ccccc2C(=O)O)Sc2ccccc2C(=O)O)ccc1O" ? Its growth inhibition was 81.6

So, "COc1ccccc1NC(=O)C1=C(C)NC(C)=C(C(=O)Nc2ccccc2OC)C1c1ccc(OC)c(OC)c1" ? Its growth inhibition was -38.9

So, "CCc1cc(CC)c(-c2ccco2)c(COC(=O)NC)c1" ? Its growth inhibition was 77.4

So, "CC1=C(C#N)C(=O)N(C)C(=O)C1(Cl)Cl" ? Its growth inhibition was 14.6

So, CC(C=O)Cc1ccccc1 (configuration not stated) ? Its growth inhibition was 37

So, "COc1ccc(-c2c(C(=O)O)[nH]c3ccccc23)cc1" ? Its growth inhibition was 98.5

So, "COc1ccc2c(ccc[n+]2CC(=O)c2ccc(-c3ccccc3)cc2)c1" ? Its growth inhibition was -12.8

So, "C[C@H]1CC[C@@H]2[C@@H](C)[C@H]3[C@H](C[C@H]4[C@@H]5CC=C6C[C@@H](O)CC[C@]6(C)[C@H]5CC[C@]34C)N2C1" ? Its growth inhibition was 91.2

So, "Cc1nc(-c2ccc(N=Cc3ccc(N(CCOS(C)(=O)=O)CCOS(C)(=O)=O)cc3)cc2)cs1" ? Its growth inhibition was -45.7

So, "C/C=C\C=N\NC(N)=S" ? Its growth inhibition was -24.6

So, CC12CCC(O)CC1=CCC1C2CCC2(C)c3nc(C#N)c(=N)n(O)c3CC12 (configuration not stated) ? Its growth inhibition was 98.5

So, "CC(=O)N(C1=C(Cl)C(=O)c2ccccc2C1=O)c1ccc(F)cc1" ? Its growth inhibition was 94.4

So, "N#CSCCl" ? Its growth inhibition was 91

So, "O=C(NCCCN1CCN(CCCNC(=O)c2cc(-c3ccccc3)nc3ccccc23)CC1)c1cc(-c2ccccc2)nc2ccccc12" ? Its growth inhibition was 86.3

So, "O=C(O)c1ccccc1C(c1ccccc1)c1ccccc1" ? Its growth inhibition was 74.3

So, "COc1ccc(OC)c(CC(Cl)(C#N)C#N)c1" ? Its growth inhibition was 99

So, "O=[N+]([O-])c1ccc(N=C(Cl)C(Cl)(c2ccccc2)c2ccccc2)cc1" ? Its growth inhibition was 94.2

So, CC(c1ccccc1)c1cc(C(C)(C)C)ccc1O (configuration not stated) ? Its growth inhibition was 99.3

So, "O=C1C(c2c[nH]c3ccccc23)=Nc2ccc(Br)cc21" ? Its growth inhibition was 53.5

So, "CCN=C(N)Nc1nc(-c2ccc(Cl)cc2)cs1" ? Its growth inhibition was 76.3

So, CC(=O)OC1C(O)C(C)OC(OC(=O)C2CCC3C(C2)OC2(CC(OC(=O)/C=C/c4ccccc4)C(C)CO2)C32CO2)C1OC1OC(C)C(O)C(O)C1O (configuration not stated) ? Its growth inhibition was 75.6

So, Cc1ccc2c(c1)C1(SC(C)C(=O)N1c1ccc(Cl)cc1)C(=O)N2CN1CCOCC1 (configuration not stated) ? Its growth inhibition was -17.3

So, "O=C1c2ccccc2C(=O)c2sc(Nc3ccccc3C(F)(F)F)nc21" ? Its growth inhibition was 90.5

So, "BrCc1ccc([Si](c2ccccc2)(c2ccccc2)c2ccc(CBr)cc2)cc1" ? Its growth inhibition was 78.5

So, "COc1ccc2nc3cccc([N+](=O)[O-])c3c(NCCO)c2c1" ? Its growth inhibition was 87.2

So, S=C1NC2=C(CSC/C2=C\c2ccccc2)C(c2ccccc2)N1 (configuration not stated) ? Its growth inhibition was 68.8

So, "Cc1ccc(NC(=O)Oc2ccc(OC(=O)Cc3ccccc3)cc2)cc1NC(=O)Oc1ccc(OC(=O)Cc2ccccc2)cc1" ? Its growth inhibition was 98.2
